Data origin: PubChem BioAssay (NCI)

# System: OVCAR-4 ovarian
# assay: NCI tumour cell line growth inhibition, 48 h
readoutLabel: TGI (µM)

compound="COC(=O)C1(Cc2ccccc2)Cc2c(C)ccc(C)c2C1=O (centres undefined)" testedtarget="OVCAR-4 ovarian" readoutlabel=TGI ltgteq=> observedmeasurement=100
compound=CC(=O)O[C@H]1C[C@H]2[C@@H]([C@H](OC(C)=O)C[C@@H]3CC4(CC[C@@]32C)OOC2(CCCCC2)OO4)[C@@H]2CC[C@H]([C@H](C)CCC(=O)O)[C@@]12C testedtarget="OVCAR-4 ovarian" readoutlabel=TGI ltgteq== observedmeasurement=9.38
compound=CCOc1ccc(/C=C2/C(=O)N=C(N)N=C2N)cc1OCC testedtarget="OVCAR-4 ovarian" readoutlabel=TGI ltgteq=> observedmeasurement=100
compound=NC(N)=N/N=C\c1c(-c2ccccc2)nc2sccn12 testedtarget="OVCAR-4 ovarian" readoutlabel=TGI ltgteq== observedmeasurement=29.5
compound=Cc1ccccc1CNc1c2ccccc2nc2ccccc12 testedtarget="OVCAR-4 ovarian" readoutlabel=TGI ltgteq== observedmeasurement=6.4
compound=Nc1ncnc2sc(Nc3ccccc3)nc12 testedtarget="OVCAR-4 ovarian" readoutlabel=TGI ltgteq=> observedmeasurement=100
compound="CC(C)CCCC(C)[C@H]1CCC2[C@@H]3CCC4Cc5nc6c(nc5C[C@]4(C)C3CC[C@@]21C)CC1CC[C@@H]2C(CC[C@@]3(C)C2CC[C@@H]3O)[C@@]1(C)C6 (some centres undefined)" testedtarget="OVCAR-4 ovarian" readoutlabel=TGI ltgteq=> observedmeasurement=100
compound=O=C(/C=C/c1cccc(Oc2ccc(Cl)cc2)c1)c1ccccc1 testedtarget="OVCAR-4 ovarian" readoutlabel=TGI ltgteq== observedmeasurement=234
compound=Cc1cc(-c2ccco2)cc(C)c1/C=C/c1cncc(-c2nn[nH]n2)c1 testedtarget="OVCAR-4 ovarian" readoutlabel=TGI ltgteq=> observedmeasurement=25
